Data origin, for the record: the MegaScale stability set (Tsuboyama et al. 2023)

This section presents variants with their documented folding stability dG values.
B1: HEEH_KT_rd6_0790 (parent)
chain: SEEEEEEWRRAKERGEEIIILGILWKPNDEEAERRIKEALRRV

Variants of: B1
test.protocol: folding stability dG (cDNA display proteolysis); higher = more stable
measurement.parameters: PBS, room temperature
Record the result as number plus unit.

Quick one: folding stability dG for R14S ?
1.92 kcal/mol

Can you check I20P next?
0.587 kcal/mol

// next record P27Q
1.2 kcal/mol

Param item: R10D
1.2 kcal/mol

What about E13L ?
2.4 kcal/mol

Ok, now W25L
0.939 kcal/mol

Moving on to the next variant: G15M
1.66 kcal/mol

Now consider E17Y and answer again.
1.91 kcal/mol

E2W , same question.
2.54 kcal/mol

Another variant to look at: R9P
0.985 kcal/mol
